Target: PAD1 (Homo sapiens, UniProt Q9ULC6)
Construct: made in house
Sequence (Q9ULC6 whole entry): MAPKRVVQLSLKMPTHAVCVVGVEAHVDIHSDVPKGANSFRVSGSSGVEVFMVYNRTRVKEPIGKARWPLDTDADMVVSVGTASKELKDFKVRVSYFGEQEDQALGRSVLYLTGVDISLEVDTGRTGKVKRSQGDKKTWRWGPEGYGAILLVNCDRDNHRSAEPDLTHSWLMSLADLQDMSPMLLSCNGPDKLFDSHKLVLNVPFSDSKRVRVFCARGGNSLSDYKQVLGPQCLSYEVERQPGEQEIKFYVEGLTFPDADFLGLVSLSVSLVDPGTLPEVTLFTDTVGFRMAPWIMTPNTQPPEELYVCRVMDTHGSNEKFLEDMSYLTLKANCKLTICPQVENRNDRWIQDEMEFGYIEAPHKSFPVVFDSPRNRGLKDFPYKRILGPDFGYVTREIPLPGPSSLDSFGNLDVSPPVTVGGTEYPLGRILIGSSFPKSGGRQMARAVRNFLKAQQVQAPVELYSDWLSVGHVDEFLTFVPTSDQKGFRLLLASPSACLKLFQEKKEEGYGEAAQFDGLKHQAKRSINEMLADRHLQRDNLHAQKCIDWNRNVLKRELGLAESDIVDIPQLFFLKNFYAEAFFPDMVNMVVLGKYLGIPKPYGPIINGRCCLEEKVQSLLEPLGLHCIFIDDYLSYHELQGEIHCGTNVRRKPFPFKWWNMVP
Assay: Inactivation kinetics, PAD1
Format: biochemical
Conditions: kinact/KI relative to least inhibited isozyme (1.0)
Classify as follows. Reported Fold PAD1 Selectivity greater than or equal to 6 fold: YES. Reported Fold PAD1 Selectivity below: NO.

Does the reported Fold PAD1 Selectivity for COc1ccc2[nH]c([C@H](CCCNC(=N)CCl)NC(=O)c3cccc4c3C(=O)NC4)nc2c1 fall at or above the 6 fold mark?
YES

Does the reported Fold PAD1 Selectivity for N=C(CCl)NCCC[C@H](NC(=O)c1ccc2ccccc2c1)c1nc2ccccc2[nH]1 fall at or above the 6 fold mark?
NO

Does the reported Fold PAD1 Selectivity for COc1cccc2c1nc([C@H](CCCNC(=N)CCl)NC(=O)c1cccc3c1C(=O)NC3)n2C fall at or above the 6 fold mark?
NO

Does the reported Fold PAD1 Selectivity for CC(C)n1c([C@H](CCCNC(=N)CCl)NC(=O)c2ccccc2C(=O)O)nc2ccccc21 fall at or above the 6 fold mark?
YES

Does the reported Fold PAD1 Selectivity for CCn1c([C@H](CCCNC(=N)CCl)NC(=O)c2ccc(-c3ccccc3)cc2)nc2ccccc21 fall at or above the 6 fold mark?
NO

Does the reported Fold PAD1 Selectivity for N=C(CF)NCCC[C@H](NC(=O)c1cccc2c1C(=O)NC2)c1nc2ccccc2[nH]1 fall at or above the 6 fold mark?
YES

Next:
Does the reported Fold PAD1 Selectivity for CCN1Cc2cccc(C(=O)N[C@@H](CCCNC(=N)CCl)c3nc4cc(OC)ccc4n3CC)c2C1=O fall at or above the 6 fold mark?
YES

Does the reported Fold PAD1 Selectivity for N=C(CCl)NCCC[C@H](NC(=O)c1cccc2c1C(=O)NC2)c1nc2ccccc2[nH]1 fall at or above the 6 fold mark?
YES

src = patent US11208386B2
